Tested on: DU-145 prostate
experimental protocol: NCI tumour cell line growth inhibition, 48 h
Below, each entry is listed with its recorded TGI.
measured metric: TGI

{"columns": ["compound", "system under test", "reported value"],
 "data": [
  ["CCn1cc(/C=C2\\Oc3cc(OCC#N)ccc3C2=O)c2cc(OC)ccc21", "DU-145 prostate", "> 62 µM"],
  ["CC(=O)NC1(NC(C)=O)C2CC(C1Cc1ccccc1)C(C)(C)C2C (stereo not given)", "DU-145 prostate", "> 100 µM"],
  ["COC(=O)c1c(CC(Cc2ccc3c(c2)CCCC3)C(=O)O)ccc2c1CCCC2 (stereo not given)", "DU-145 prostate", "> 100 µM"],
  ["O=C(c1ccccc1)N1C(=O)N(c2ccccc2)C(=Nc2ccccc2)C1=Nc1ccccc1", "DU-145 prostate", "> 100 µM"],
  ["O=C1CCCC/C1=C\\c1ccc([N+](=O)[O-])cc1", "DU-145 prostate", "> 100 µM"],
  ["O=C(Cn1cc(Br)c(=O)[nH]c1=O)c1ccc(-c2ccccc2)cc1", "DU-145 prostate", "> 30.7 µM"],
  ["Cc1cccc2[nH]c3c(c(O)cc4[nH]c5cccc(C)c5c(=O)c43)c(=O)c12", "DU-145 prostate", "> 10 µM"],
  ["CCCCc1ccc(-n2sc3ncc(-c4ccccc4)cc3c2=O)cc1", "DU-145 prostate", "> 100 µM"],
  ["N#[N+]c1c([O-])c2ccccc2c2ccccc12", "DU-145 prostate", "> 100 µM"],
  ["Nc1nccc(NCC2(CO)CC(OCc3ccccc3)C2)n1 (stereo not given)", "DU-145 prostate", "> 100 µM"]
]}

* * *

Test system: NCI-H522 lung
experimental protocol: NCI tumour cell line growth inhibition, 48 h

{"columns": ["compound", "TGI"],
 "data": [
  ["CC[C@@H](CCCCC1CC[C@H]2CC(=O)C[C@@H]12)OC (stereo not given in full)", "> 100 µM"],
  ["CCSc1ccc([C@@H]2[C@@H](O)C(=O)N2c2cc(OC)c(OC)c(OC)c2)cc1", "< 0.0119 µM"],
  ["O=C(c1ccccc1)N1C(=O)N(c2ccccc2)C(=Nc2ccccc2)C1=Nc1ccccc1", "> 100 µM"],
  ["CN(C)N1C(=O)SCC(c2ccccc2)(c2ccccc2)C1=O", "> 100 µM"],
  ["C1CCCCC2(CCCCCCCCC3(CCC1)SCCS3)SCCS2", "> 100 µM"]
]}

* * *

Tested on: MCF7 breast
experimental protocol: NCI tumour cell line growth inhibition, 48 h

{"columns": ["compound", "system under test", "GI50"],
 "data": [
  ["CC(C)(C)NCC(O)COc1c(Br)c(Br)c(Br)c2c1OC(C)(C)C2 (stereo not given)", "MCF7 breast", "1.76 µM"],
  ["CCN1[C@@H](C(=O)NC23CCC(C(=O)O)(CC2)CC3)[C@H](c2cccc(Cl)c2F)[C@]2(C(=O)Nc3cc(Cl)ccc32)C12CCCCC2", "MCF7 breast", "0.0523 µM"],
  ["COc1cc(OC)c2sc(-c3ccc(-n4cncc4-c4ccc(OC)c(OC)c4)cc3)nc2c1", "MCF7 breast", "5.37 µM"],
  ["NC(=O)c1cccnc1", "MCF7 breast", "> 100 µM"],
  ["Nc1c(C(=O)c2cccc(C#CCN3CCCCC3)c2)cnn1-c1ccc(F)cc1", "MCF7 breast", "19.1 µM"]
]}
